Target: Axl (Homo sapiens)
Construct: endogenous in cells; host or cells: HeLa cells
Experiment: Phospho-Akt In-Cell Western Assay (inhibition of Axl activity after Axl-antibody cross-linking)
Assay type: cell-based
Settings: inhibition of Axl activity; Table 1, compounds of formula (Ia); read-out: IC50
pIC50: −log10 of the molar value.
pIC50 values by entry

Completed entries (count: 4):
Nc1nc(Nc2ccc(C3CCN(CC4CC4)CC3)cc2)nn1-c1cc2c(nn1)-c1ccccc1CCC2 [Compound 212]; > 6.00
Nc1nc(Nc2ccc(C3NCC4CNCC43)c(F)c2)nn1-c1cc2c(nn1)-c1ccccc1CCC2 (stereo not drawn) [Compound 137]; > 6.00
Cc1csc2c(-n3nc(Nc4cnc5c(c4)CCC4(CCC5)OCC(C)(C)CO4)nc3N)nc(Cl)nc12 [Compound 246]; > 6.00
Nc1nc(Nc2ccc(C=CCN3CCOCC3)cc2)nn1-c1cc2c(nn1)-c1ccccc1CCC2 [Compound 207]; > 6.00

Lookup: Requested read-out: pIC50. Entry: CCN(CC)C1CCN(CC=Cc2ccc(Nc3nc(N)n(-c4cc5c(nn4)-c4ccccc4CCC5)n3)cc2)C1 (stereo not drawn) [Compound 201]
Found: > 6.00

Lookup: Also, Nc1nc(Nc2ccc(N3CCC(N4CCCC4)C3)c(F)c2)nn1-c1cc2c(nn1)-c1ccccc1CCC2 (stereo not drawn) [Compound 132] please.
Found: > 6.00

Lookup: Also, Nc1nc(Nc2ccc(N3CCC(N4CCCC4)CC3)c(F)c2)nn1-c1cc2c(nn1)CCCc1ccccc1-2 [Compound 178] please.
Found: > 6.00

Lookup: Also, Nc1nc(Nc2cnc3c(c2)CN(C2CCCC2)CCC3)nn1-c1cc2c(nn1)-c1ccccc1CCC2 [Compound 139] please.
Found: < 4.70

Lookup: Also, CC(C)N1CCN(CC=Cc2ccc(Nc3nc(N)n(-c4cc5c(nn4)-c4ccccc4CCC5)n3)cc2)CC1 [Compound 205] please.
Found: > 6.00

Lookup: Also, Nc1nc(Nc2ccc(C=CCN3CCC(N4CCCC4)CC3)cc2)nn1-c1cc2c(nn1)-c1ccccc1CCC2 [Compound 203] please.
Found: > 6.00

Lookup: Also, CN1CCN(C2CCN(c3ccc(Nc4nc(N)n(-c5cc6c(nn5)-c5ccccc5OC65CCCC5)n4)cc3F)CC2)CC1 [Compound 175] please.
Found: 4.70 to 5.00

Lookup: Also, Nc1nc(Nc2ccc(N3CCN(CC4CC4)CC3)c(F)c2)nn1-c1cc2c(nn1)-c1ccccc1CCC2 [Compound 214] please.
Found: > 6.00

Lookup: Also, CN1CCN(c2ccc(Nc3nc(N)n(-c4cc5c(nn4)-c4ccccc4CCC5)n3)cc2F)CC1 [Compound 209] please.
Found: > 6.00

Lookup: Also, COc1cc2ncnc(-n3nc(Nc4cnc5c(c4)CC4(CCC5)OCCO4)nc3N)c2cc1OC [Compound 239] please.
Found: 5.00 to 6.00

Lookup: Also, Nc1nc(Nc2ccc(N3CCN4CCCCC4C3)c(F)c2)nn1-c1cc2c(nn1)-c1ccccc1CCC2 (stereo not drawn) [Compound 128] please.
Found: 5.00 to 6.00

---

Biological target: Axl (Homo sapiens)
Construct: endogenous in cells; host or cells: HeLa cells
Sequence (P30530 26-894): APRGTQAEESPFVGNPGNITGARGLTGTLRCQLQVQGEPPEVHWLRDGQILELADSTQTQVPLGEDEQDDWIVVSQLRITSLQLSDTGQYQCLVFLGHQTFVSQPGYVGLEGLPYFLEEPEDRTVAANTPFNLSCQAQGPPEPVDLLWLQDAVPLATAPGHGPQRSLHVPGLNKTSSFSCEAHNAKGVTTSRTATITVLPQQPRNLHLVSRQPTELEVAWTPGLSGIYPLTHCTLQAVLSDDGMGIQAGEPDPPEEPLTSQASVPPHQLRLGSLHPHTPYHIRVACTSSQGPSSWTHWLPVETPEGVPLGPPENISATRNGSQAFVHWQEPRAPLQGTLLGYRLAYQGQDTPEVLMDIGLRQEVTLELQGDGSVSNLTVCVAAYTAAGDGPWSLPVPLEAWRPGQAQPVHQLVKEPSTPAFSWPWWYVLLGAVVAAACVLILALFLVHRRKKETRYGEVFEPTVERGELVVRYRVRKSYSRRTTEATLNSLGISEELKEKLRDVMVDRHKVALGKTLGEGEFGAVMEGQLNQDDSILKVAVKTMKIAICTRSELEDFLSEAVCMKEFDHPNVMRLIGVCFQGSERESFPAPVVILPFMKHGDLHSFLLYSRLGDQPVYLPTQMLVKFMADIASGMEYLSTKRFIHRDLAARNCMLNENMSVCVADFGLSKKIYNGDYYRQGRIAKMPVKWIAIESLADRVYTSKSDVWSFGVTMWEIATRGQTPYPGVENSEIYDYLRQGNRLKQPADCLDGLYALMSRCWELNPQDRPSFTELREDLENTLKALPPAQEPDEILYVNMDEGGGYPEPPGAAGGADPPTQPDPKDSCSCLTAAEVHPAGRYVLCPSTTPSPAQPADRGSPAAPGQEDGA
Test: Phospho-Akt In-Cell Western Assay (inhibition of Axl activity after Axl-antibody cross-linking)
Assay type: cell-based
Settings: inhibition of Axl activity; Table 1, compounds of formula (Ia); read-out: IC50
pIC50: −log10 of the molar value.
property label: pIC50

Nc1nc(Nc2ccc3c(c2)CN(C2CCCC2)CC3)nn1-c1cc2c(nn1)-c1ccccc1CCC2; > 6.00

Lookup: Look up pIC50 with Axl (Homo sapiens) for this compound: Nc1nc(Nc2ccc(C(=O)N3CCC(N4CCCCC4)CC3)nc2)nn1-c1cc2c(nn1)-c1ccccc1CCC2
Found: 5.00 to 6.00

Lookup: Also, Nc1nc(Nc2ccc3c(c2)CCC(NC2CCCCC2)CC3)nn1-c1cc2c(nn1)-c1ccccc1CCC2 (stereo not drawn) please.
Found: > 6.00
